Molecular target: T1, recombinant human regenerating islet-derived protein 1α (REG1A) (human, UniProt P05451 23-166, limits assumed)
T1 construct: also called recombinant human REG1A; recombinant REG1A
T1 sequence (looked up): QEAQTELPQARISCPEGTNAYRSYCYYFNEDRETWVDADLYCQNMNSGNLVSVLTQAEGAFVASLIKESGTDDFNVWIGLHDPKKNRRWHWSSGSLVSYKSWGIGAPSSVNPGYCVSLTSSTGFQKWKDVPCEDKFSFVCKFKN
Test: sandwich ELISA; capture 21B11D2; REG1A 3.70 ng/mL
Below is a list of entries, each paired with its recorded OD value value.
Entry rule: numbers only, all in OD.

Below are worked cases with known answers.
[
  {
    "binder": "antibody 21B11D2 (antibody, mouse IgG2b, kappa, V domains shown, Mouse monoclonal from hybridoma, stated mouse IgG1/Kappa; Used unlabelled as capture and biotin-labelled as detection antibody; also called 21B11D2-biotin) VH: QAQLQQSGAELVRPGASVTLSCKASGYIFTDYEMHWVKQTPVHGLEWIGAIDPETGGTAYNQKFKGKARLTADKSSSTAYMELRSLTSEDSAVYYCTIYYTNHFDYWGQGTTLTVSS VL: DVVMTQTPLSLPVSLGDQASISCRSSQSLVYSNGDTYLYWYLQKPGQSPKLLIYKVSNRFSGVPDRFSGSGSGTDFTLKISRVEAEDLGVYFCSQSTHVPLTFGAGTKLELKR",
    "resultNumber": 0.069
  },
  {
    "binder": "antibody 11D11B11 (antibody, mouse IgG2a, kappa, V domains shown, Mouse monoclonal from hybridoma, stated mouse IgG1/Kappa; Used unlabelled as capture and biotin-labelled as detection antibody; also called 11D11B11-biotin) VH: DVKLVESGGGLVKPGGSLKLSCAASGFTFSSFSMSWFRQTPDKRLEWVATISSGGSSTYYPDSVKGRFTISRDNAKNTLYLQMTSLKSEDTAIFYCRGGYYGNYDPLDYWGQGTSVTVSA VL: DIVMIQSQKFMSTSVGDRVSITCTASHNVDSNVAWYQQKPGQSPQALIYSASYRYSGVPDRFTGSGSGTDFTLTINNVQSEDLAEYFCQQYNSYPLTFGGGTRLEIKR",
    "resultNumber": 0.069
  },
  {
    "binder": "antibody 4H8F1 (antibody, V domains shown, Mouse monoclonal from hybridoma, stated mouse IgG1/Kappa; also called 4H8F1-biotin; Antibody 1) VH: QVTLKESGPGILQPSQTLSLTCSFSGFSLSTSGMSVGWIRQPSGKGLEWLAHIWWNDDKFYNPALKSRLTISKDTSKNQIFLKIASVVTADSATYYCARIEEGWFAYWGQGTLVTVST VL: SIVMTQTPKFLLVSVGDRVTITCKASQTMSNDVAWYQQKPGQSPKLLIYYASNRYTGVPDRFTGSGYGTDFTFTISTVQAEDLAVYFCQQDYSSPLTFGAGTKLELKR",
    "resultNumber": 0.077
  }
]

Query OD value for antibody 12F12A10 (antibody, V domains shown, Mouse monoclonal from hybridoma, stated mouse IgG1/Kappa; also called 12F12A10-biotin; Antibody 2) VH: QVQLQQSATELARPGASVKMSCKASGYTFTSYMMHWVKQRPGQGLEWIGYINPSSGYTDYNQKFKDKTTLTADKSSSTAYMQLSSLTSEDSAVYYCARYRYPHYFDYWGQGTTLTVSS VL: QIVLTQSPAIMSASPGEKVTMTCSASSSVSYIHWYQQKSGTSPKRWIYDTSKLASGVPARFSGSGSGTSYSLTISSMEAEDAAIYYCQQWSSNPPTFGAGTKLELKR
4.59
